B1: tRNA (parent)
chain: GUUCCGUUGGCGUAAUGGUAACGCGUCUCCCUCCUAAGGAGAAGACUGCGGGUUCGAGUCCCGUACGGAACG

variants of: B1; experiment: yeast fitness, log relative to wild type (ln ratio); higher = fitter; tRNA-Arg(CCU), competitive growth, 37 C, 1 M NaCl
Recorded measurements of yeast fitness (ln), one per entry
measured_quantity: yeast fitness (ln)

{"columns": ["residue_change", "quantitative_result"],
 "data": [
  ["G1A G6A C66A A70U", -0.0411],
  ["U2C G6A A43C C46U A70U C71U", -0.09],
  ["U2C G6U C27U C46U C66A", -0.267],
  ["G1A U2C G6U C46U A69G A70G", -0.0666],
  ["G1A C46U C66A A69G A70U C71U", -0.331],
  ["C46U C66A C71U", -0.0724],
  ["G1A U2G G6A A43C C46U C66U A70G", -0.181],
  ["G1A U2C G6U", -0.00557],
  ["G1A U2C C27U A43C C46U C66U A69G A70G C71U", -0.2],
  ["G6U C27U A43C C46U C66A A70U", -0.382],
  ["U2C C27U A70U C71U", -0.104],
  ["G1A U2C C66U A70U C71U", -0.106],
  ["G1A G6A A43C C46U C66U A69G A70G", -0.184],
  ["U2C C27U A43C C71U", -0.0796],
  ["U2C G6U C27U A43C C46U C66A A70U", -0.0786],
  ["U2G A69G A70G", -0.147],
  ["U2C C27U A43C C46U C66A C71U", -0.132],
  ["G1A U2C G6A C27U C66U A70U C71U", -0.261],
  ["G1A U2G G6A C27U C46U C66U A69G A70G", -0.272],
  ["U2G A43C C66A A70U", -0.0996],
  ["G1A U2C C27U A43C C46U C66U A70U", -0.0712],
  ["U2C G6U C46U C66A A70G", -0.013]
]}

The values you see were collected from the RNAGym collection of RNA variant scans (doi:10.1038/s41586-018-0170-7).
